Value source: patent US20200277374A1

Target: T1, human Siglec-7 expressed on human cells (primary monocytes, dendritic cells, macrophages, NK cells, … (human, UniProt Q9Y286 19-467))
T1 construct: Endogenous receptor on cells; also called Siglec-7 receptor
T1 sequence (Q9Y286 19-467): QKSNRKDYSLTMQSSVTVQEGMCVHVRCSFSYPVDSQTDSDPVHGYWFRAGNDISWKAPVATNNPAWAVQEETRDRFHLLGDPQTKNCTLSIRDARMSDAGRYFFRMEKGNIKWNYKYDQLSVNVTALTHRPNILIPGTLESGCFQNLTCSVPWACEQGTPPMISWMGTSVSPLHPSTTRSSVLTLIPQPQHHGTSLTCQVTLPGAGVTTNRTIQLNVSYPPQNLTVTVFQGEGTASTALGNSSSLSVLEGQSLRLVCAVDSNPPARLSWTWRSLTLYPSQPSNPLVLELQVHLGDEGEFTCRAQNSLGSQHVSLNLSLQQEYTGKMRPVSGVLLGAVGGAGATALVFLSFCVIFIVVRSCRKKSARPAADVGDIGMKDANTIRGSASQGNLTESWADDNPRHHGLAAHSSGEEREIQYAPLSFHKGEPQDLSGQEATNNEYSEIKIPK
Assay: FACS, human primary macrophages, 10 ug/ml mAb
The threshold is 4000. Values of MFI beneath it are tagged met; values meeting or exceeding it are tagged not met.

For orientation, consider the following solved cases.
Dear colleague, could you confirm whether MFI of anti-Siglec-7 antibody 7E11 (antibody, V domains shown, Variable domains assembled from FR and CDR entries) VH: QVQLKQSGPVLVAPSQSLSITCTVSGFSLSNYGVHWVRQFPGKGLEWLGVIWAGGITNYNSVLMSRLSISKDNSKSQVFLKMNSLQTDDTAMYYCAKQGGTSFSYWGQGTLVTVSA VL: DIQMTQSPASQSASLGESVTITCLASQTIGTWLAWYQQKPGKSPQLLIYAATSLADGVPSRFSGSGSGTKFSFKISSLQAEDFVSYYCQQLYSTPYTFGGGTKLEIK falls below 4000? Thanks. met

Similarly, anti-Siglec-7 antibody 7F12 (antibody, V domains shown, Variable domains assembled from FR and CDR entries) VH: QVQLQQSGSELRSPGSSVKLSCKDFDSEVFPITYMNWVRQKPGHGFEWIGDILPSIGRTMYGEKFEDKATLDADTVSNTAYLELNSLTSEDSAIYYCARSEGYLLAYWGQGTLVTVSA VL: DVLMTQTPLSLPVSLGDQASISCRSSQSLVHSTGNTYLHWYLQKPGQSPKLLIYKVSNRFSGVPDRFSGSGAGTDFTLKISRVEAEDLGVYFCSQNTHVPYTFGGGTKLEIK ? not met

Others:
Dear colleague, could you confirm whether MFI of anti-Siglec-7 antibody 4E3 (antibody, V domains shown, VL FR1 there holds a Z); also called S7-4E3; mAb S7-4E3) VH: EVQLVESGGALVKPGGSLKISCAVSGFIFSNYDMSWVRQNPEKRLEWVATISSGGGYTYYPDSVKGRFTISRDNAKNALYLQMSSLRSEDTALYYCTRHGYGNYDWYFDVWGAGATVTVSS VL: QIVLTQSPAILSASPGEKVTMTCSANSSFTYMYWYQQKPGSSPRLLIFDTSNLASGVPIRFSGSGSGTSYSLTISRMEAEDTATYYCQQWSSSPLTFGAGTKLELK falls below 4000? Thanks. not met

Similarly, anti-Siglec-7 antibody 10G8 (antibody, V domains shown, Variable domains assembled from FR and CDR entries) VH: EVKLVEFGGALVKPGGSLKLSCAALGFTFSTYAMFRVRQTPEKREEGVASISSGGRYTYYPDSAKDRHPIFRDNARNTLYLQMSSLRSKDTAMYYCVRHSYGSSYWYLDVWGAGTTVTVSS VL: DIQMTQFPATLSGTPGDRVZLSRRASQSIREYLHWYQQKSHESPRLZIKFASQSICGIPSRFSGSGSGSDFTLSINTVEPEDVGVYYCQKAHNFPYTFGGGTKLEIK ? met
